Reference source for all entries: paper PMC2756588

# experimental system: Myo3, P36006
# experimental protocol: SPOT array
# protocol conditions: median of control spots 468
Please use yes (1) for SPOT intensity under 5 and no (0) for everything else, ties included.

Would you please look over these solved cases?
| binder | category |
| --- | --- |
| SSSSTPPTLPPRRIE | no (0) |
| VQPTAAPATPPRHIS | yes (1) |
| RKNRAPPQRPRFNRE | no (0) |
| KKAPPPVVKPKPRNF | yes (1) |
| VQQDSLPKLPFRSWG | yes (1) |

Switching to the query record.
## Task SPOT intensity strictly < 5 for this binder? `FSRRQSMDIPSKNRN`
## Result no (0)
